Cited source: ChEMBL document CHEMBL1961873

Target Desc: Serine/threonine-protein kinase DCLK2 (Homo sapiens) (UniProt Q8N568);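 note: reported value is the mean percent inhibition of DCAMKL2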
Sequence (Q8N568 whole entry): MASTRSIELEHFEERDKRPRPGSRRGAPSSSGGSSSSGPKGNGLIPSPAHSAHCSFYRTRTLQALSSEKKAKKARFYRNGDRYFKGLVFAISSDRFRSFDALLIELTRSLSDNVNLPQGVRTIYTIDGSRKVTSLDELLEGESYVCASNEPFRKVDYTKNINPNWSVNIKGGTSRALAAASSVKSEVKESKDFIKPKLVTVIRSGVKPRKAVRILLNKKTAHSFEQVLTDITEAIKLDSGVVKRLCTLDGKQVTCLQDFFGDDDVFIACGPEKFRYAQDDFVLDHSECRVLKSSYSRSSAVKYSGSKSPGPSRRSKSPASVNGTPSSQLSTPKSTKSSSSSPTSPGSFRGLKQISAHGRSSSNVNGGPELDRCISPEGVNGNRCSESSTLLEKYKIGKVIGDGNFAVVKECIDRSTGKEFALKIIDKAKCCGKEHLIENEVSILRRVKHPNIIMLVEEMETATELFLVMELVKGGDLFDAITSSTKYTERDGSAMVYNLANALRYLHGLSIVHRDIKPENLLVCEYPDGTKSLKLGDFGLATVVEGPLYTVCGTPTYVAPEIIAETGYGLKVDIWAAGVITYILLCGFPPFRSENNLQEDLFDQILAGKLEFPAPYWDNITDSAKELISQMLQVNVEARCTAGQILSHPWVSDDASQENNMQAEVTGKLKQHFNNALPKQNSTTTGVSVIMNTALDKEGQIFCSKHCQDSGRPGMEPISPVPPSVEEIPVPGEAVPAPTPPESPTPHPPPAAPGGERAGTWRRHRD
Recorded Conditions: at 0.1 µM
// inhibition lookup, one value per entry
// return numeric value only (unit: %, not printed)

O=C1Nc2ccccc2/C1=C/Nc1ccc2[nH]c(=O)[nH]c2c1: 0.75

Consider the compound `COc1ccc2ncnc(Nc3ccc(OCc4ccccc4)cc3)c2c1` and give its measured inhibition. -5.53

Consider the compound `CN(C)c1cc2c(Nc3ccc4c(cnn4Cc4ccccc4)c3)ncnc2cn1` and give its measured inhibition. 0.57

Consider the compound `[O-][S+]1CCN(Cc2ccc(-c3ccc4ncnc(Nc5ccc(OCc6ccccc6)c(Cl)c5)c4c3)o2)CC1` and give its measured inhibition. 0.43
